tested on: Acyl-protein thioesterase 1 (Homo sapiens) (UniProt O75608)
Sequence (O75608 whole entry, looked up): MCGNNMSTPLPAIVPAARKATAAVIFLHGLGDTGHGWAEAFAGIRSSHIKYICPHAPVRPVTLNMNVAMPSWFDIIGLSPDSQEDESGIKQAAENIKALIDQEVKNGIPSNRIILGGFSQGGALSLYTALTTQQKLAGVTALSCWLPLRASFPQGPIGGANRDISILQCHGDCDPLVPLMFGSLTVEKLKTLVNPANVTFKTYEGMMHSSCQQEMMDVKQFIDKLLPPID
experimental protocol: inhibition of human lysophospholipase 1 – biochemical, fluorescence polarization, FP-Rh probe ABPP, counter-screen for PME1 inhibitor project, primary screen (AID 2174);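 note: inhibitors block serine hydrolase probe labeling of LYPLA1 so polarization falls; 0% = enzyme with DMSO and 100% = wells lacking LYPLA1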
assay conditions: recombinant LYPLA1, FP-Rh probe fluorescence polarization; at 5.9 µM; active compounds read high
In all, about 320,000 compounds went through this assay and about 500 (0.16%) were called active. Shown is part of a subset that was picked to be rich in actives.
test readout: inhibition (%)

compound	tested on	test readout	measured
COc1ccc(-c2nc(CS(=O)CC(=O)NCc3ccccc3)c(C)o2)cc1OC (stereo not given)	Acyl-protein thioesterase 1 (Homo sapiens) (UniProt O75608)	inhibition	-1.5
CC1CCCCC1NC(=O)NC(=O)COC(=O)C1=NN(c2ccccc2)C(=O)CC1 (stereo not given)	Acyl-protein thioesterase 1 (Homo sapiens) (UniProt O75608)	inhibition	-3.28
O=C(CCn1c(SCC(=O)c2ccccc2)nc2ccccc2c1=O)NCc1ccc(F)cc1	Acyl-protein thioesterase 1 (Homo sapiens) (UniProt O75608)	inhibition	33.2
Cc1ccccc1Nc1nc(N)nc(CSc2ccccc2)n1	Acyl-protein thioesterase 1 (Homo sapiens) (UniProt O75608)	inhibition	-4.27
COc1ccc(-c2nc(CS(=O)CC(=O)NCc3ccccn3)c(C)o2)cc1 (stereo not given)	Acyl-protein thioesterase 1 (Homo sapiens) (UniProt O75608)	inhibition	25
COc1ccc(S(=O)(=O)N/N=C\c2ccc(OC)c(COc3ccc(C)cc3[N+](=O)[O-])c2)cc1	Acyl-protein thioesterase 1 (Homo sapiens) (UniProt O75608)	inhibition	3.24
Cc1ccc(N(CC(=O)NC2CCCCC2)C(=O)CCCC(=O)Nc2ccccn2)c(C)c1	Acyl-protein thioesterase 1 (Homo sapiens) (UniProt O75608)	inhibition	-5.08
O=C(CSc1nc2ccccc2c(=O)n1-c1ccc(F)cc1)NC1CC1	Acyl-protein thioesterase 1 (Homo sapiens) (UniProt O75608)	inhibition	0.87
CCOc1ccc(N2CC(C(=O)NCCN3C(=O)S/C(=C\c4cccnc4)C3=O)CC2=O)cc1 (stereo not given)	Acyl-protein thioesterase 1 (Homo sapiens) (UniProt O75608)	inhibition	7.93
CC[N+](C)(CC)CCC[n+]1c(-c2ccccc2)c2cc(N)ccc2c2ccc(N)cc21	Acyl-protein thioesterase 1 (Homo sapiens) (UniProt O75608)	inhibition	60.1

----------
tested on: Acyl-protein thioesterase 1 (Homo sapiens)
experimental protocol: inhibition of human lysophospholipase 1 – biochemical, fluorescence polarization, FP-Rh probe ABPP, counter-screen for PME1 inhibitor project, primary screen (AID 2174)
assay conditions: recombinant LYPLA1, FP-Rh probe fluorescence polarization; at 5.9 µM; active compounds read high
The whole screen tested about 320,000 compounds, of which about 500 (0.16%) were called active. Only a selection was taken, and actives are over-represented in it overall.

molecule	inhibition / %
Cn1nccc1C(=O)N1CCCC(C(=O)c2ccc(Oc3ccccc3)cc2)C1 (stereo not given)	6.29
CCCCn1c(N)c(N(CC(C)C)C(=O)CN(C)S(=O)(=O)c2ccc(F)cc2)c(=O)[nH]c1=O	-3.12
CCc1[nH]nc(C(=O)N2CCCC(CO)(Cc3ccc(F)cc3F)C2)c1C (stereo not given)	-0.39
CC1(C)OC(=O)C(=CNC(CO)C(=O)O)C(=O)O1 (stereo not given)	-1.91
CCOC(=O)C1=C(CC)Nc2ccccc2N=C1NC(=O)c1cccc(S(=O)(=O)N2CCCC2)c1	-0.79

----------
tested on: Acyl-protein thioesterase 1 (Homo sapiens)
experimental protocol: inhibition of human lysophospholipase 1 – biochemical, fluorescence polarization, FP-Rh probe ABPP, counter-screen for PME1 inhibitor project, primary screen (AID 2174);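 note: inhibitors block serine hydrolase probe labeling of LYPLA1 so polarization falls; 0% = enzyme with DMSO and 100% = wells lacking LYPLA1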
assay conditions: recombinant LYPLA1, FP-Rh probe fluorescence polarization; at 5.9 µM; active compounds read high
About 500 (0.16%) of roughly 320,000 compounds were called active. The sample holds actives, similar compounds and a random draw of the others, so the mix is not that of the screen.
inhibition reference

compound	inhibition / %
COc1cccc(NC(=O)N2CCCC2C(=O)NC2CCCCC2)c1 (stereo not drawn)	15.1
COc1cccc(NC(=O)N2C3CCCC2CC(NC(C)=O)C3)c1 (stereo not drawn)	-0.11
Cc1ccccc1NC(=O)NC1(C(=O)N2CCCC2)CCCCC1	5.72
CCCCCCCCCCCC(=O)O	1.07
CCOc1ccc(C(=O)NC(=S)Nc2ccc(NC(=O)C(C)C)cc2)cc1[N+](=O)[O-]	2.01
CCOc1ccc(N(CC(=O)NCCc2ccc(OC)cc2)S(C)(=O)=O)cc1	1.18
COc1cccc(NC(=O)C2CCCN2C(=O)OCc2ccccc2)c1 (stereo not drawn)	1.14
CCC(=C/c1sc2ccc3ccccc3c2[n+]1C)/C=C1\Sc2ccc3ccccc3c2N1C	25
CN(Cc1ccc(F)cc1Cl)S(=O)(=O)c1cccs1	4.05
O=C(c1ccc(Br)o1)N1CCN(CCOc2ccccc2)CC1	2.69
COC(=O)c1cc2c(ccn2C)n1C	-0.69
CCn1c(CC(=O)Nc2ccc(C)cc2)nnc1SCC(=O)Nc1nc(C)cs1	-2.24
COc1ccc(/C=C2\CCCC3C2=NN(C(=O)c2scnc2C)C3c2ccc(OC)cc2)cc1 (stereo not drawn)	-3.35
O=C(c1ccco1)N1CCN(CC(=O)N(C2CCCCC2)C2CCS(=O)(=O)C2)CC1 (stereo not drawn)	5.75
Cc1ccc(NC(=O)NNC(=O)c2sccc2-n2cccc2)cc1	-1.32
CC(Oc1ccc(F)cc1)C(=O)N1CCN(c2ncccn2)CC1 (stereo not drawn)	-4.75
COc1ccc(NS(=O)(=O)c2cccc(C(=O)NCCc3ccc(S(N)(=O)=O)cc3)c2)cc1	0.92
C=CCSC(CC)(CC)C(N)=O	6.47
Cc1ccc(CNC(=O)CCNS(=O)(=O)c2ccc(Br)s2)cc1	0.04
CCOc1ccc(C(=O)NC(=S)Nc2ccc(N3CCOCC3)c(Cl)c2)cc1[N+](=O)[O-]	19.9
COc1cc(OC)cc(C(=O)NNC(=O)CNC(=O)c2ccc(Br)o2)c1	-3.43
CCc1noc(C)c1C(=O)N1CCN(S(=O)(=O)c2cccc(C(F)(F)F)c2)CC1	-4.37
O=C(O)c1ccccc1NC(=S)NC(NC(=O)c1ccccc1[N+](=O)[O-])C(Cl)(Cl)Cl (stereo not drawn)	2.28

----------
tested on: Acyl-protein thioesterase 1 (Homo sapiens) (UniProt O75608)
experimental protocol: inhibition of human lysophospholipase 1 – biochemical, fluorescence polarization, FP-Rh probe ABPP, counter-screen for PME1 inhibitor project, primary screen (AID 2174);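 note: inhibitors block serine hydrolase probe labeling of LYPLA1 so polarization falls; 0% = enzyme with DMSO and 100% = wells lacking LYPLA1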
assay conditions: recombinant LYPLA1, FP-Rh probe fluorescence polarization; at 5.9 µM; active compounds read high
Screen size: about 320,000 compounds; about 500 (0.16%) were called active. This excerpt belongs to a sample that is enriched for actives.
inhibition reference
test readout: inhibition (%)

molecule	units label	measured
CCCCCCNCCn1cnc2c(N)ncnc21	%	-4.2
COCCCN(C(=O)CSCc1ccc(C)cc1)c1c(N)n(Cc2ccccc2)c(=O)[nH]c1=O	%	-5.33
CCOC(=O)c1c(/N=C/c2cc(C)ccc2O)sc2c1CCC2	%	-3.88
CCCCn1c(N)c(N(CCC(C)C)C(=O)c2ccc(COc3ccccc3)o2)c(=O)[nH]c1=O	%	2.38
COc1cccc(CNS(=O)(=O)c2csc(C(N)=O)c2)c1	%	-2.15
CCCCN(C(=O)/C=C/c1ccco1)c1c(N)n(CC(C)C)c(=O)[nH]c1=O	%	-1.43
Cc1cccc(N2CCN(C(=O)CN(C)S(=O)(=O)c3ccc4c(c3)CCC(=O)N4)CC2)c1C	%	16.5
CCN(Cc1ccccc1)S(=O)(=O)c1cc(C(=O)O)ccc1OC	%	-4.32
Cc1c(Br)c([N+](=O)[O-])nn1CC(=O)N1CCN(Cc2ccccc2)CC1	%	1.03
O=S(=O)(NCCCN1CCOCC1)c1ccc(F)c(Cl)c1	%	2.43
CCCCc1nc2cc(C(=O)N3CCCCC3CCO)ccc2o1 (stereo unspecified)	%	-0.28

----------
tested on: Acyl-protein thioesterase 1 (Homo sapiens) (UniProt O75608)
experimental protocol: inhibition of human lysophospholipase 1 – biochemical, fluorescence polarization, FP-Rh probe ABPP, counter-screen for PME1 inhibitor project, primary screen (AID 2174);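 note: inhibitors block serine hydrolase probe labeling of LYPLA1 so polarization falls; 0% = enzyme with DMSO and 100% = wells lacking LYPLA1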
assay conditions: recombinant LYPLA1, FP-Rh probe fluorescence polarization; at 5.9 µM; active compounds read high
About 500 (0.16%) of roughly 320,000 compounds were called active. The full list was thinned out, with actives kept by preference.
test readout: inhibition (%)

entry smiles	measured
O=C(COc1ccc2ccccc2c1)N1CCN(C(=O)c2cccs2)CC1	1.27
CC1=C[C@H]2Cc3cc(C)cc(C)c3S(=O)(=O)[C@@H]2C=C1	-3.78
Cc1ccc(OCc2cc(C(=O)N(C)CCc3ccccc3)no2)cc1C	2.48
O=C1COc2ccc(NC(=O)N3CCN(c4ccc(F)cc4)CC3)cc2N1	-0.21
O=c1[nH]n(-c2ccc([N+](=O)[O-])cc2)c(=O)c2ccccc12	22.9
CC(=O)N1CCN(C(=O)c2cc(-c3ccc(Cl)s3)nc3ccccc23)CC1	-4.07
CC/C(=N\NC(=O)c1c(C)nc2ccccn12)c1ccc(Cl)cc1	-2.24
O=C1NC2(CCCCCC2)C(=O)N1CCS(=O)(=O)Oc1ccccc1	-0.42
O=C(NC1CC1)C1=C[C@H](c2c[nH]c3ccccc23)C[C@H](OCc2ccc(CO)cc2)O1	0.98
O=C(NCCCc1ccccc1)c1cc(COc2c(F)cccc2F)on1	-0.18
